System: SK-OV-3
Assay notes: NCI tumour cell line growth inhibition, 48 h
Calls of active or inactive are those of the source. Cut-off read from the data, not from the text of the source: active = GI50 up to about 1.1 µM and inactive = higher.
Overview of recorded GI50 for various molecules

Example entries begin here.
1. CC[N+]1(C)CCC(O)(/C=C/c2ccccc2)C(C(=O)/C=C/c2ccccc2)C1 (stereo not given); 18.2 µM (inactive)
2. CC(=O)Oc1ccc(C2SCc3nc4ccccc4n32)cc1 (stereo not given); 26.8 µM (inactive)
3. O=C(Nc1ccc(Cl)cc1)c1cc(S(=O)(=O)Nc2n[nH]c(=O)n2-c2ccccc2)c(S)cc1Cl; > 100 µM (inactive)
4. Nc1ncn(C2OC(COP(=O)(O)O)C(O)C2O)c(=O)n1 (stereo not given); > 100 µM (inactive)
5. c1ccc2sc(C3(N4CCCCCC4)CCCCC3)cc2c1; 29 µM (inactive)
6. O=[N+]([O-])c1cc(Cl)ccc1Sc1ccccc1; > 100 µM (inactive)
7. COc1ccc(S(=O)(=O)Nc2ccc(-c3csc(N4C(=O)/C(=C/c5ccccc5[N+](=O)[O-])N=C4c4ccccc4)n3)cc2)cc1Cl; > 100 µM (inactive)
8. Nc1cc2c3c(cccc3c1)C(=O)N(CCN1CCN(CCN3C(=O)c4cccc5cc(N)cc(c45)C3=O)CC1)C2=O; > 100 µM (inactive)
9. COC1CC(OC2C(C)OC(OC3C(C)OC(OC4C(C)OC(O[C@H]5CC[C@@]6(C)C(=CC[C@]7(O)[C@@H]6C[C@@H](OC(C)=O)[C@@]6(C)[C@]7(O)CC[C@@]6(O)C(C)=O)C5)CC4OC)CC3OC)CC2OC)OC(C)C1O (stereo not given in full); > 25 µM (inactive)

Enquiry: For COC(=O)C1SC(SC)=NC12c1ccccc1Nc1ccccc12 (stereo not given) , what is its reported GI50?
Return: 45.8 µM (inactive)

====

Test system: NCI-H522
Assay notes: NCI tumour cell line growth inhibition, 48 h
Activity calls are given as the source filed them. No stated cut-off is given here; in the data, active = GI50 up to about 1.1 µM and inactive = higher.
Overview of recorded GI50 for various compounds

Example entries begin here.
1. COC(=O)CCC(=O)CC1CC(=O)C2CCCN12 (configuration not stated); > 100 µM (inactive)
2. Cc1ccc(CC[PH](=O)CCc2ccc(C)nc2)cn1; > 100 µM (inactive)
3. CC(C)c1ccc(O)c(=O)c(O)c1.CC(C)c1ccc(O)c(=O)cc1.CC(C)c1cccc(=O)c(O)c1.CC(C)c1ccccc(=O)c1O; 0.456 µM (active)
4. COC1=CC2C(c3cc4ccccc4n3S(=O)(=O)c3ccccc3)CC1CN2C(=O)OCc1ccccc1 (configuration not stated); 18 µM (inactive)
5. COC12OC3CC4(C)C(=CC3OC(OC(C)C1O)C2O)CCC1C4CCC2(C)C(c3ccc(=O)oc3)CCC12O (configuration not stated); < 0.001 µM (active)

Enquiry: For `C[C@@H]1CC[C@H]2C(C)(C)[C@H]3C[C@@]12CC[C@@]3(C)O` , what is its reported GI50?
Return: 45.9 µM (inactive)

Enquiry: Note, next up: CN1C(=O)C2C=C3CCCCC3=CC2N(C)C1=O (configuration not stated)
Return: > 100 µM (inactive)

Enquiry: Note, next up: `CN(C)CCSCCO`
Return: > 100 µM (inactive)

Enquiry: Note, next up: CCOP(=O)(OCC)C(Cc1ccc(OC)c(OC)c1)N=C(c1ccccc1)c1ccccc1 (configuration not stated)
Return: 22.8 µM (inactive)

Enquiry: Note, next up: CC(=O)NC(CCCNC(=O)OCc1ccccc1)C(=O)O (configuration not stated)
Return: > 100 µM (inactive)

Enquiry: Note, next up: `C[C@H](OCc1ccccc1)C(=O)N1CCS(=O)(=O)N2CCC[C@H]2C1=O`
Return: > 100 µM (inactive)

Enquiry: Note, next up: COC(=O)C1=COC2OC3CC1C2C(C)O3 (configuration not stated)
Return: > 100 µM (inactive)

Enquiry: Note, next up: `CC(=O)n1nc(-c2[nH]c(C)c(-c3nn(C(C)=O)c(=S)o3)c2C)oc1=S`
Return: > 85.7 µM (inactive)

Enquiry: Note, next up: `COc1cc(/C=C2\N=C(c3ccccc3)N(c3nc4ccccc4s3)C2=O)cc(OC)c1OC`
Return: 13.4 µM (inactive)

Data credit: ChEMBL document CHEMBL1201862
